Biological target: T1, human GPCR142 (human, UniProt Q8TDU9 1-374)
T1 construct: Recombinant
T1 sequence (Q8TDU9 whole entry L329S): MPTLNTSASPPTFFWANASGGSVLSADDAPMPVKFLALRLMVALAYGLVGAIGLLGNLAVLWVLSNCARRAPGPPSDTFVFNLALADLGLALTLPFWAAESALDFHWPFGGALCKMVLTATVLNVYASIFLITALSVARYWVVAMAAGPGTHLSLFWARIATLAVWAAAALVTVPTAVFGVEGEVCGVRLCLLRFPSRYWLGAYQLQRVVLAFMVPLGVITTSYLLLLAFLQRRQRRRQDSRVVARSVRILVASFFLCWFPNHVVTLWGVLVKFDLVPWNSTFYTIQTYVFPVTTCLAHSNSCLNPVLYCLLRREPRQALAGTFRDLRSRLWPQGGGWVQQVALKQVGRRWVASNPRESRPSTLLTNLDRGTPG
Test: competition with [125I]-relaxin-3 (100 pM), COS-7 membranes with human GPCR142
Ends that are not written are not given here.
Overview of reported pIC50 across a group of binders:
Units for pIC50: none; it is -log10 of a concentration expressed in mol/L.

Supply recorded pIC50 for RAAPYGVRLCGREFIRAVIFTCGGSRWNPARYCCLSGCTQQDLLTLC (ligand, disulfide (positions not given here); also: two chains (relaxin-3 B-chain, INSL3 A-chain), disulfide-linked, chain break not marked, Mature two-chain peptide: human relaxin-3 B-chain disulfide-linked to human INSL3 A-chain; FLAG tag removed) [human relaxin-3/INSL3 chimeric polypeptide (R3/I3), mature] here.
8.46

Supply recorded pIC50 for RAAPYGVRLCGREFIRAVIFTCGGSRWPYVALFEKCCLIGCTKRSLAKYC (ligand, disulfide (positions not given here); also: two chains (relaxin-3 B-chain, relaxin-1 A-chain), disulfide-linked, chain break not marked, Mature two-chain peptide: human relaxin-3 B-chain disulfide-linked to human relaxin-1 A-chain; Made in COS-7 cells with furin; the FLAG tag was removed with enterokinase) [human relaxin-3/relaxin-1 chimeric polypeptide (R3/R1), mature] here.
8.59

Supply recorded pIC50 for RAAPYGVRLCGREFIRAVIFTCGGSRWGYSEKCCLTGCTKEELSIAC (ligand, disulfide (positions not given here); also: two chains (relaxin-3 B-chain, INSL6 A-chain), disulfide-linked, chain break not marked, Mature two-chain peptide: human relaxin-3 B-chain disulfide-linked to human INSL6 A-chain; FLAG tag removed) [human relaxin-3/INSL6 chimeric polypeptide (R3/I6), mature] here.
7.95
